Value source: the supplement of paper PMC10724198

- Test system: Saccharomyces cerevisiae
- protocol details: protein stability index of tFT-peptide fusion (C-terminal peptide) (PSI (0-1 scale)); higher = more stable (slower turnover)
- condition parameters: genetic background: das1 deletion; temperature: 37 C
I'd be grateful if you could share measured protein stability index for these entries.
Note: the reply should be a number with no unit written.

Quickly give me recorded protein stability index for LCFFLAFSFVFF
0.382

Quickly give me recorded protein stability index for FGFFRLVIVCFR
0.313

Quickly give me recorded protein stability index for RFGLPLLVVTWL
0.531

Quickly give me recorded protein stability index for PFLCLPFLLVSR
0.49

Quickly give me recorded protein stability index for RARRFGKWERSG
0.731

Quickly give me recorded protein stability index for NLTAIIYTLVVD
0.444

Quickly give me recorded protein stability index for FFFVLVSGWWGV
0.472

Quickly give me recorded protein stability index for LFSTRRWISVCA
0.127

Quickly give me recorded protein stability index for VRGWLAYLRWII
0.724

Quickly give me recorded protein stability index for PRLWLYCLIISL
0.335

Quickly give me recorded protein stability index for IFFVLVFFPGFF
0.548

Quickly give me recorded protein stability index for VFFTSLPPLLRA
0.51

Quickly give me recorded protein stability index for AFRFFWFFFFTS
0.603

Quickly give me recorded protein stability index for FGVLFFVFVFVC
0.322

Quickly give me recorded protein stability index for FRVSAFFLPFLS
0.735

Quickly give me recorded protein stability index for GFYQSGGLVVVV
0.663

Quickly give me recorded protein stability index for FSVLLLANFCFF
0.554

Quickly give me recorded protein stability index for CALLLLSVRAGQ
0.591

Quickly give me recorded protein stability index for SFLVRFVYFFAL
0.67

Quickly give me recorded protein stability index for SGCWGRRLWFFN
0.757

Quickly give me recorded protein stability index for LQIKSFTSQRLA
0.724

Quickly give me recorded protein stability index for AFWLFSGIARLA
0.642

Quickly give me recorded protein stability index for APLFPPPPARSL
0.704

Quickly give me recorded protein stability index for FFSLMFVFLTVF
0.276

Quickly give me recorded protein stability index for AYSVIPSLALLP
0.731

Quickly give me recorded protein stability index for FLFLLLFLLLCC
0.534

Quickly give me recorded protein stability index for GFVLLCFCCRTW
0.483

Quickly give me recorded protein stability index for LFAIFLVVLLFR
0.273

Quickly give me recorded protein stability index for CMIACYALLRLL
0.477

Quickly give me recorded protein stability index for LIMIRLLYLRLI
0.365

Quickly give me recorded protein stability index for VGRANLSVIRKV
0.715

Quickly give me recorded protein stability index for VAFILVVCKGIG
0.327

Quickly give me recorded protein stability index for SVFGLLSVCFFY
0.604

Quickly give me recorded protein stability index for ALLIYFLCRCIP
0.522

Quickly give me recorded protein stability index for LFLLSHYALCFY
0.593

Quickly give me recorded protein stability index for FLASLCFFPLLC
0.557

Quickly give me recorded protein stability index for GAVKCLVCLAVW
0.414

Quickly give me recorded protein stability index for RRLRPQTVAFLS
0.704

Quickly give me recorded protein stability index for RHTVFFCQLLLV
0.439

Quickly give me recorded protein stability index for VSVVLKTQRVVC
0.603

Quickly give me recorded protein stability index for MIILGFILYFFW
0.505

Quickly give me recorded protein stability index for LRNVPCLVFFWV
0.632

Quickly give me recorded protein stability index for GWLVGLGLVFFT
0.661

Quickly give me recorded protein stability index for GFSEGRLTIPVY
0.51

Quickly give me recorded protein stability index for FTNLDYTKEKNN
0.708

Quickly give me recorded protein stability index for FLLFSFFFFFFF
0.52

Quickly give me recorded protein stability index for SVKRVVPCLVSC
0.525

Quickly give me recorded protein stability index for LSGIILGWSVSG
0.735

Quickly give me recorded protein stability index for ACFLFPSHLLIS
0.699

Quickly give me recorded protein stability index for PVSEPCAWRIIA
0.699

Quickly give me recorded protein stability index for LIICRSFLCKVR
0.369

Quickly give me recorded protein stability index for FFVISVVLCLLV
0.447

Quickly give me recorded protein stability index for KKKNIYKVMKLE
0.726

Quickly give me recorded protein stability index for PPTRVPVTLFLV
0.676

Quickly give me recorded protein stability index for VWVAWLGGAILA
0.29

Quickly give me recorded protein stability index for ISLSSLYVVMYV
0.428

Quickly give me recorded protein stability index for DSTLLYRPPSPA
0.725

Quickly give me recorded protein stability index for VSGEWSFLVRVQ
0.61

Quickly give me recorded protein stability index for FAFPTPPPLLFD
0.735

Quickly give me recorded protein stability index for PSLVFLPPPPPR
0.748

Quickly give me recorded protein stability index for DDVRFLLWGLCC
0.56

Quickly give me recorded protein stability index for SSVFRLKGLMFL
0.715

Quickly give me recorded protein stability index for VDGVSFFVVLLC
0.537

---

- System: Saccharomyces cerevisiae
- protocol details: protein stability index of tFT-peptide fusion (C-terminal peptide) (PSI (0-1 scale)); higher = more stable (slower turnover)
- condition parameters: genetic background: das1 deletion; temperature: 37 C
parameter: protein stability index
Note: the reply should be a number with no unit written.

Quickly give me recorded protein stability index for PGRHSVRFVFVC
0.581

Quickly give me recorded protein stability index for RDTTQRRRKTAA
0.658

Quickly give me recorded protein stability index for FFFFSMFSFFIP
0.564

Quickly give me recorded protein stability index for WFLLSLSSFVSS
0.469

Quickly give me recorded protein stability index for TSPYTSFAHTSL
0.739

Quickly give me recorded protein stability index for FFLKPVPSLFLC
0.666

Quickly give me recorded protein stability index for FIFYYTVLLLCR
0.171

Quickly give me recorded protein stability index for LFGRVLSGILSV
0.702

Quickly give me recorded protein stability index for CFFFCSLFLSFL
0.498

Quickly give me recorded protein stability index for IVRLGRWLGLSC
0.709

Quickly give me recorded protein stability index for GLLLVWAALGFV
0.458

Quickly give me recorded protein stability index for HDRLRGVFWRVP
0.743

Quickly give me recorded protein stability index for GVQFRRPLIPIY
0.547

Quickly give me recorded protein stability index for SFVCFFLNLFVY
0.272

Quickly give me recorded protein stability index for TRHIGQYIHKIT
0.694

Quickly give me recorded protein stability index for LGGCVSYINLLA
0.7

Quickly give me recorded protein stability index for VFFGLYLVTFTS
0.379

Quickly give me recorded protein stability index for VEIKSKRMLVVI
0.578

Quickly give me recorded protein stability index for RDPLAPLLLAIP
0.701

Quickly give me recorded protein stability index for LCFGMVELMWIY
0.521

Quickly give me recorded protein stability index for YPVAWSSAIIIR
0.531

Quickly give me recorded protein stability index for YFFFPILCFCFF
0.479

Quickly give me recorded protein stability index for FVWAVGLVSASV
0.561

Quickly give me recorded protein stability index for SLSIFCLMLMLF
0.565

Quickly give me recorded protein stability index for RVVITYLVLSNR
0.646

Quickly give me recorded protein stability index for WVGGVLLSVVGG
0.349

Quickly give me recorded protein stability index for SLCSRLVVVAWF
0.608

Quickly give me recorded protein stability index for VQVLVAIMDGRM
0.387

Quickly give me recorded protein stability index for CFFSLLLLIFSV
0.484

Quickly give me recorded protein stability index for VFFCLFVLFLSG
0.437

Quickly give me recorded protein stability index for VVQCRFPTPCVV
0.534

Quickly give me recorded protein stability index for IGSFYVLSFICQ
0.626

Quickly give me recorded protein stability index for RAPPPSSLLSPP
0.718

Quickly give me recorded protein stability index for LCGIFTFRLSLL
0.706

---

- Test system: Saccharomyces cerevisiae
- protocol details: protein stability index of tFT-peptide fusion (C-terminal peptide) (PSI (0-1 scale)); higher = more stable (slower turnover)
- condition parameters: genetic background: wild type; temperature: 30 C
parameter: protein stability index
Note: the reply should be a number with no unit written.

Quickly give me recorded protein stability index for IRLDGENNSCSC [YPT7 C-terminal 12 aa]
0.697

Quickly give me recorded protein stability index for YLRFKENPEEKW [AIM29 C-terminal 12 aa]
0.753

Quickly give me recorded protein stability index for LQPWEGRLYLLK [IMA5 C-terminal 12 aa]
0.693

---

- System: Saccharomyces cerevisiae
- protocol details: protein stability index of tFT-peptide fusion (C-terminal peptide) (PSI (0-1 scale)); higher = more stable (slower turnover)
- condition parameters: genetic background: wild type; temperature: 30 C
I'd be grateful if you could share measured protein stability index for these entries.
Note: the reply should be a number with no unit written.

Quickly give me recorded protein stability index for FHYSRSCVLEQL
0.698

Quickly give me recorded protein stability index for PQSSLPPLSTSS
0.686

Quickly give me recorded protein stability index for YEASSIPAWRYV
0.529

Quickly give me recorded protein stability index for LCLLFLSFFFVC
0.307

Quickly give me recorded protein stability index for LPPHSPALRLPR
0.708
